test target: CYP2B6 (Homo sapiens, UniProt P20813, K262R/Y226H)
assay method text: Cumene hydroperoxide
Type: biochemical
condition details: human, CYP2B6 enzyme with cumene hydroperoxide, pH 7.4
measured parameter: Km (µM)
Give the quantity in µM, number only.

Give the measured Km of CCOc1ccc2c(C(F)(F)F)cc(=O)oc2c1 [7-EFC, 7-Ethoxy-4-(trifluoromethyl)coumarin, reference compound] .
56

====

test target: CYP2B6 (Homo sapiens, UniProt P20813, K262R/Y226H)
assay method text: Cumene hydroperoxide
Type: biochemical
condition details: CuOOH-based IC50, CYP2B6; CYP:cyt b5
measured parameter: pIC50
Would you please state pIC50, meaning minus log10 of the concentration in mol/L, as a bare number?

Lookup: pIC50 / CYP2B6 (Homo sapiens, UniProt P20813, K262R/Y226H) / "Nc1ccc(Oc2ccccc2)cc1"
4.36

====

test target: CYP2B6 (Homo sapiens, UniProt P20813, K262R/Y226H)
Sequence (P20813 with tags, fused parts or gaps Y226H/K262R limits assumed): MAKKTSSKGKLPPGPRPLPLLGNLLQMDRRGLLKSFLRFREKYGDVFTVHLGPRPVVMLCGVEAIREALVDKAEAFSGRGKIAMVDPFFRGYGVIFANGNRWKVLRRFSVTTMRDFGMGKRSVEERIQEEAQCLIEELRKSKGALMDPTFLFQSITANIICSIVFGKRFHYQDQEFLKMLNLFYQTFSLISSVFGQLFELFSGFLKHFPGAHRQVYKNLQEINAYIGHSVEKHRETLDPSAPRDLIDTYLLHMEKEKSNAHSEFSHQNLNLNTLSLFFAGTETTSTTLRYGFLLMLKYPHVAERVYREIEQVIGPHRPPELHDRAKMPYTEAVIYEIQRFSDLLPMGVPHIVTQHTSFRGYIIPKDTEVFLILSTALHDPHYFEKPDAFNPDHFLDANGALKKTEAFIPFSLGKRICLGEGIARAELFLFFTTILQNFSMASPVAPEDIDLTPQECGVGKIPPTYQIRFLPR
assay method text: NADPH-dependent 7-EFC O-deethylation enzyme inhibition assay
Assay type: biochemical
condition details: KI, CYP2B6; CYP:POR:cyt b5 1:4:2; 0-200 μM 7-EFC; 37 °C
measured parameter: Ki (µM)
The response must be a number in µM with no trailing unit.

Ki for "Nc1ccc(Oc2ccccc2)cc1" ?
13

I'd like to know its Ki. The molecule in question is "Nc1ccc(Oc2cc(Cl)c(Cl)cc2Cl)cc1"
0.64

====

test target: CYP2B6 (Homo sapiens, UniProt P20813, K262R/Y226H)
Sequence (P20813 with tags, fused parts or gaps Y226H/K262R): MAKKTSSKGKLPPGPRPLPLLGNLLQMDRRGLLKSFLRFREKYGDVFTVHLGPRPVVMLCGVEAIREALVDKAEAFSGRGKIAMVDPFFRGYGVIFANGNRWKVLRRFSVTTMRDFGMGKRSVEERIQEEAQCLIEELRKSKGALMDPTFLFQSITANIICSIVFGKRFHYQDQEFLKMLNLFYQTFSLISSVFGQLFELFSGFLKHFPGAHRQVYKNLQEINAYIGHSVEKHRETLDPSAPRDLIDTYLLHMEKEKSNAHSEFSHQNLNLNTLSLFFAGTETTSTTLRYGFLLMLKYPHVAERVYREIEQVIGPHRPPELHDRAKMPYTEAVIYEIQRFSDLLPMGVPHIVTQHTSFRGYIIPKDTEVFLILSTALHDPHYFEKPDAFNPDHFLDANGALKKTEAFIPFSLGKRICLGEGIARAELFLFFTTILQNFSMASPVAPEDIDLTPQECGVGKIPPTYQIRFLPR
assay method text: Cumene hydroperoxide
Format: biochemical
condition details: CuOOH-based IC50, CYP2B6; CYP alone
measured parameter: IC50 (µM)
Expressed in µM, but write only the number.

Enter reported IC50 observed with CYP2B6 (Homo sapiens, UniProt P20813, K262R/Y226H) for "Nc1ccc(Oc2ccccc2)cc1"
38
